target: GST-tagged KRAS-G12V (2-169) (Homo sapiens, UniProt P01116, G12V); assay: Nucleotide exchange assay (NEA), SOS-mediated, HTRF, KRAS G12V; settings: Table 4; IC50 extracted at 90 min; 80 nM SOS
Sequence (P01116 2-169 isoform P01116-2 G12V): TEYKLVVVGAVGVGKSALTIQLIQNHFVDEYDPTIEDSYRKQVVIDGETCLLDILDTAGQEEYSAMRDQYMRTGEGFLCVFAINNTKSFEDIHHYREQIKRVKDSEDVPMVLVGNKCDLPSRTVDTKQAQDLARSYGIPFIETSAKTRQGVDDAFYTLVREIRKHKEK
attribute.measured: IC50

| compound | system.name | result |
| --- | --- | --- |
| CCN(c1nc(OC[C@@]23CCCN2C[C@H](F)C3)nc(N2CC3(CCc4sc(N)c(C#N)c43)C2)n1)[C@H](C)c1cccnc1N [Compound 173] | GST-tagged KRAS-G12V (2-169) (Homo sapiens, UniProt P01116, G12V) | < 10 nM |

Lab note: each compound below needs its IC50 filled in.
1. CN(C)CC1(COc2nc(N3CC4(C3)SCc3sc(N)c(C#N)c34)nc(N3C[C@@H](F)C[C@@](C)(O)C3)n2)CC1(F)F (stereo partly drawn) [Compound 153]
2. N#Cc1c(N)sc2c1C1(CC2)CN(c2nc(OC[C@@]34CCCN3C[C@H](F)C4)nc(N3CCCC(O)(CO)C3)n2)C1 (stereo partly drawn) [Compound 85]

Result:
< 10 nM
10 to 100 nM
